The measurements presented in this section are drawn from PubChem BioAssay (EPA / NIEHS).

study-target: Cellular tumor antigen p53 (Homo sapiens) (UniProt P04637)
Sequence (P04637 whole entry, looked up): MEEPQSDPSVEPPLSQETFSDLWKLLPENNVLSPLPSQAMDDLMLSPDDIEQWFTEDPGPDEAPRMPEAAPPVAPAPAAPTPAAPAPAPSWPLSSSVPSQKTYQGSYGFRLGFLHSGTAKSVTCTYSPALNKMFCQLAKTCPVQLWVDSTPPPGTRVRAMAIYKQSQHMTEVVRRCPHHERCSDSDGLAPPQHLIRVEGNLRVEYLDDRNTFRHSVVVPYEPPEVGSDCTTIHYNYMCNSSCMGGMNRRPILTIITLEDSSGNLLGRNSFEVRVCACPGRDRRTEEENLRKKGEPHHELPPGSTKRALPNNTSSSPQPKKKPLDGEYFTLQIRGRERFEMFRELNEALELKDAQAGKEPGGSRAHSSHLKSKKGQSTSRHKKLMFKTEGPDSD
assay-notes: TOX21_p53_BLA_p4_ratio: Tox21 HCT-116 p53 Agonism Beta-lactamase Assay, Ratio, Phase 4 (AID 2283601)
Results filed as inconclusive are left out. Calls of active or inactive are those of the source. Rule for the calls: active = hit-call score of the fitted dose curve at least 0.9, where 1 is the maximum; inconclusive = response in the unintended direction; inactive = score below 0.9.
Choose one outcome from this list and give only that: 1 for active, 0 for inactive

Enquiry: What classification did Nc1c2c(nc3c1CCC3)CCCC2 end up with in this test?
Return: 0

Enquiry: What classification did Oc1cccc(O)c1O end up with in this test?
Return: 0

Enquiry: What classification did CC[C@@H](CO)NCCN[C@@H](CC)CO end up with in this test?
Return: 0

Enquiry: What classification did CCCCC(CC)CN (stereo not drawn) end up with in this test?
Return: 0

Enquiry: What classification did c1ccc(CNCCNCc2ccccc2)cc1 end up with in this test?
Return: 0

Enquiry: What classification did Cc1nc(Nc2ncc(C(=O)Nc3c(C)cccc3Cl)s2)cc(N2CCN(CCO)CC2)n1 end up with in this test?
Return: 1

Enquiry: What classification did O=Cc1ccc(Cl)cc1 end up with in this test?
Return: 0

Enquiry: What classification did CCOc1cc([N+](=O)[O-])c(OCC)cc1N1CCOCC1 end up with in this test?
Return: 0

Enquiry: What classification did O=C(O)c1ccc(Cl)cc1Cl end up with in this test?
Return: 0

Enquiry: What classification did CCCCC(CC)CN=C(N)NC(N)=NCCCCCCN=C(N)NC(N)=NCC(CC)CCCC (stereo not drawn) end up with in this test?
Return: 1

Enquiry: What classification did CC(C)NNC(=O)c1ccncc1 end up with in this test?
Return: 0

Enquiry: What classification did Cc1c(C)n(Cc2ccccc2)c2ccc(C(=O)OCCN(C)C)cc12 end up with in this test?
Return: 0

Enquiry: What classification did Nc1cc(S(=O)(=O)O)cc2cc(S(=O)(=O)O)cc(O)c12 end up with in this test?
Return: 0

* * *

assay-notes: TOX21_p53_BLA_p5_viability: Viability Assessment in the Tox21 HCT-116 p53 Agonism Beta-lactamase Assay, Phase 5 (AID 2283600)
Results filed as inconclusive are left out. The source made the active and inactive calls. How the source made its calls: active means hit-call score of the fitted dose curve at least 0.9, where 1 is the maximum; inconclusive means response in the unintended direction; inactive means score below 0.9.
Choose one outcome from this list and give only that: active, inactive

Enquiry: What classification did CCc1nccnc1CC end up with in this test?
Return: inactive

Enquiry: What classification did CC(C)CCOC(=O)c1ccc(N(C)C)cc1 end up with in this test?
Return: inactive

Enquiry: What classification did CCCCCCCCCCCCC(=O)O end up with in this test?
Return: inactive

Enquiry: What classification did COc1cc(N)c(Cl)cc1C(=O)NC1CCN(CCCOc2ccc(F)cc2)CC1OC (stereo unspecified) end up with in this test?
Return: inactive

Enquiry: What classification did CNCCS(=O)(=O)O end up with in this test?
Return: inactive

Enquiry: What classification did Cc1c(C(C)C)c(=O)n(-c2ccccc2)n1C end up with in this test?
Return: inactive

Enquiry: What classification did c1cc(CN2CCCCC2)cc(OCCCNc2nc3ccccc3s2)c1 end up with in this test?
Return: inactive

Enquiry: What classification did CCOc1ccccc1O[C@H](c1ccccc1)[C@H]1CNCCO1 end up with in this test?
Return: inactive

Enquiry: What classification did Oc1ccc(Cl)c2cccnc12 end up with in this test?
Return: inactive

Enquiry: What classification did C[N+]1(C)CCC(=C(c2ccccc2)c2ccccc2)CC1 end up with in this test?
Return: inactive

Enquiry: What classification did Nc1c2c(nc3ccccc13)CCCC2 end up with in this test?
Return: inactive

Enquiry: What classification did O=C(CCCN1CCN(c2ccccn2)CC1)c1ccc(F)cc1 end up with in this test?
Return: inactive

Enquiry: What classification did CCCCCCCCCCCCCCNCCO end up with in this test?
Return: inactive

Enquiry: What classification did COc1cc2c3cc1Oc1cc(ccc1O)C[C@@H]1c4c(cc(OC)c(O)c4Oc4ccc(cc4)C[C@@H]3N(C)CC2)CC[N+]1(C)C end up with in this test?
Return: inactive

Enquiry: What classification did CCO end up with in this test?
Return: inactive

Enquiry: What classification did CN1C(C)(C)CCCC1(C)C end up with in this test?
Return: inactive

Enquiry: What classification did c1ccc2sc(SSc3nc4ccccc4s3)nc2c1 end up with in this test?
Return: inactive

Enquiry: What classification did C=CC(=O)OCC1CC2CC1C1CCC(COC(=O)C=C)C21 (stereo unspecified) end up with in this test?
Return: inactive

Enquiry: What classification did CC/C=C\CCO end up with in this test?
Return: inactive

Enquiry: What classification did CC(C)(C)NC[C@H](O)COc1ccccc1C1CCCC1 end up with in this test?
Return: inactive

Enquiry: What classification did Oc1ccc(-c2ccc(O)cc2)cc1 end up with in this test?
Return: inactive

Enquiry: What classification did Cc1c(C)c2c(c(C)c1OC(=O)CCC(=O)OCCO)CCC(C)(CCCC(C)CCCC(C)CCCC(C)C)O2 (stereo unspecified) end up with in this test?
Return: active

Enquiry: What classification did CCCCC(=O)O[C@]1(C(=O)CO)[C@H](C)C[C@H]2[C@@H]3CCC4=CC(=O)C=C[C@]4(C)[C@@]3(F)[C@@H](O)C[C@@]21C end up with in this test?
Return: inactive

Enquiry: What classification did C=CCn1c(=O)n(CC=C)c(=O)n(CC=C)c1=O end up with in this test?
Return: inactive

Enquiry: What classification did O=S(=O)(O)CCN1CCN(CCO)CC1 end up with in this test?
Return: inactive

Enquiry: What classification did CC1=CC(=O)CC(C)(C)C1(O)/C=C/C(C)=C\C(=O)O (stereo unspecified) end up with in this test?
Return: inactive

* * *

assay-notes: TOX21_p53_BLA_p4_viability: Viability Assessment in the Tox21 HCT-116 p53 Agonism Beta-lactamase Assay, Phase 4 (AID 2283597);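 note: hits lower the luminescence signal meaning cytotoxicity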
Inconclusive results are not listed. The source made the active and inactive calls. Rule for the calls: active = hit-call score of the fitted dose curve at least 0.9, where 1 is the maximum; inconclusive = response in the unintended direction; inactive = score below 0.9.
Choose one outcome from this list and give only that: 1 (active), 0 (inactive)

Enquiry: What classification did CCCCCCCCOc1ccccc1C(=O)Nc1ccc(C(=O)OCC[N+](C)(CC)CC)cc1 end up with in this test?
Return: 1

Enquiry: What classification did Clc1cc(Cl)cc(Cl)c1 end up with in this test?
Return: 0

Enquiry: What classification did NC(=S)Nc1cccc2ccccc12 end up with in this test?
Return: 0

Enquiry: What classification did C[N+]1(C)CCC(OC(=O)C(O)(c2ccccc2)C2CCCC2)C1 (configuration not stated) end up with in this test?
Return: 0

Enquiry: What classification did COC(=O)C1=C(C)NC(C)=C(C(=O)OC(C)(C)CN(C)CCC(c2ccccc2)c2ccccc2)C1c1cccc([N+](=O)[O-])c1 (configuration not stated) end up with in this test?
Return: 0

Enquiry: What classification did COCCCC/C(=N\OCCN)c1ccc(C(F)(F)F)cc1 end up with in this test?
Return: 0

Enquiry: What classification did CCN(CC)c1ccc2c(-c3ccc(S(=O)(=O)O)cc3S(=O)(=O)[O-])c3ccc(=[N+](CC)CC)cc-3oc2c1 end up with in this test?
Return: 0

Enquiry: What classification did Cc1ccc2c(c1)c1c3n2CCNC3CCC1 (configuration not stated) end up with in this test?
Return: 0

Enquiry: What classification did O=C1NC(=O)[C@@]2(CCOc3ccc(F)cc32)N1 end up with in this test?
Return: 0

Enquiry: What classification did CCCCCCC end up with in this test?
Return: 0

Enquiry: What classification did CC(C)n1nc(-c2cc3cc(O)ccc3[nH]2)c2c(N)ncnc21 end up with in this test?
Return: 1

Enquiry: What classification did OC(CN1CCC(Cc2ccc(F)cc2)CC1)c1ccc(Cl)cc1 (configuration not stated) end up with in this test?
Return: 0

* * *

assay-notes: TOX21_p53_BLA_p4_viability: Viability Assessment in the Tox21 HCT-116 p53 Agonism Beta-lactamase Assay, Phase 4 (AID 2283597);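 note: hits lower the luminescence signal meaning cytotoxicity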
Inconclusive results are not listed. Active and inactive are the calls of the source. Rule for the calls: active = hit-call score of the fitted dose curve at least 0.9, where 1 is the maximum; inconclusive = response in the unintended direction; inactive = score below 0.9.
Choose one outcome from this list and give only that: 1.0 for active, 0.0 for inactive

Enquiry: What classification did C[C@H](Cc1ccc(O)c(O)c1)[C@@H](C)Cc1ccc(O)c(O)c1 end up with in this test?
Return: 1.0

Enquiry: What classification did CC1(C)[C@@H]2CC[C@]3(C2)[C@@H]1C(=O)CCC3(C)C end up with in this test?
Return: 0.0

Enquiry: What classification did NS(=O)(=O)c1cc2c(cc1Cl)NC=NS2(=O)=O end up with in this test?
Return: 0.0

Enquiry: What classification did CCCCCCCCCCCBr end up with in this test?
Return: 0.0

Enquiry: What classification did CC(=O)Oc1c(C)cc(OCC(O)CNC(C)C)c(C)c1C (stereo not given) end up with in this test?
Return: 0.0

Enquiry: What classification did O=C(O)CN(CCN(CC(=O)O)CC(=O)O)CC(=O)O end up with in this test?
Return: 0.0

Enquiry: What classification did Nc1cc(-c2ccncc2)c[nH]c1=O end up with in this test?
Return: 0.0

Enquiry: What classification did C[C@@H]1C[C@H]2[C@@H]3CCC4=CC(=O)C=C[C@]4(C)[C@@]3(F)[C@@H](O)C[C@]2(C)[C@@]1(O)C(=O)CO end up with in this test?
Return: 0.0

Enquiry: What classification did Cc1cc(-c2ccc(N=Nc3c(S(=O)(=O)O)cc4cc(S(=O)(=O)O)cc(N)c4c3O)c(C)c2)ccc1N=Nc1c(S(=O)(=O)O)cc2cc(S(=O)(=O)O)cc(N)c2c1O end up with in this test?
Return: 1.0

Enquiry: What classification did CC(C)(C)C(=O)C(Oc1ccc(Cl)cc1)n1ccnc1 (stereo not given) end up with in this test?
Return: 0.0
